The measurements presented in this section are drawn from paper PMC6379856.

reportedMetric: pIC50
To interpret pIC50, take it as minus log10 of a concentration measured in moles per litre.

Ask: State pIC50 (iNAT (Homo sapiens)) of O=C(CCCc1ccccc1)C(=O)NCCc1ccc(Oc2ccc(C(F)(F)F)cn2)cc1 .
Result: 7.60

* * *

Kindly supply the reported pIC50 values for the records listed here.
To interpret pIC50, take it as minus log10 of a concentration measured in moles per litre.

Ask: State pIC50 (RARRES3 (Homo sapiens)) of O=C(CCCc1ccccc1)C(=O)NCCc1ccc(Oc2ccc(C(F)(F)F)cn2)cc1 .
Result: 6.80

Ask: State pIC50 (RARRES3 (Homo sapiens)) of O=C(CCc1ccc(Cl)cc1)C(=O)NCCc1ccccc1 .
Result: 6.20

* * *

reportedMetric: Ki (nM)
API: value field is a number in nM; no unit string.

Ask: State Ki (PLA2G16 (Homo sapiens, UniProt P53816)) of O=C(CCCc1ccccc1)C(=O)NCCc1ccc(Oc2ccc(C(F)(F)F)cn2)cc1 .
Result: 20
